Please provide measured normalized growth for the entries that follow.
test description: chemical genetic growth profiling, strain panel (AID 1159580);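 also: tested at 20 µM; growth read once vehicle control cultures reached saturation at 30 °C; 1 = growth at the plate median or of vehicle wells; lower values mean less growth of the strain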
condition parameters: S. cerevisiae deletion strains, growth OD, locus YDR101C, strain arx1, stronger effect = lower value
About 2,000 (36%) of roughly 5,500 compounds were called active. Inconclusive results (about 18%) are left out. Some of the results follow.
Answers are plain numbers.

Examples from the recorded data:
- COc1cccc2c1CCC1CC(=O)CCC21C (centres undefined): 0.983
- COc1cc(O)c2c(=O)cc(C)oc2c1CC=C(C)C: 0.89
- O=C1CC(c2ccccc2)Oc2ccccc21 (centres undefined): 0.958
- C[C@@H]1O[C@@H](O[C@H]2[C@@H](Oc3cc(O)c4c(c3)O[C@H](c3ccc(O)cc3)CC4=O)O[C@H](CO)[C@@H](O)[C@@H]2O)[C@H](O)[C@H](O)[C@H]1O: 0.997
- O=C(O)C1CC([C@@H]2CCCCN2)CN2CCCCC12 (some centres undefined): 0.984
- C[N+](C)(C)CC(=O)[O-]: 0.969

// batch mode: one normalized growth value per listed entry
1. COc1ccc(C2CC(=O)c3ccc(OC)cc3O2)cc1 (centres undefined)
2. COc1ccc([C@@H]2CC(=O)c3c(O)cc(O)cc3O2)cc1O

Result:
[0.93, 1.02]

Request: Supply recorded normalized growth for COc1ccc2c(c1)C1(C)CCC(=O)CC1CC2 (centres undefined) here.
Result: 1

----------
test description: chemical genetic growth profiling, strain panel (AID 1159580);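 also: tested at 20 µM; growth read once vehicle control cultures reached saturation at 30 °C; 1 = growth at the plate median or of vehicle wells; lower values mean less growth of the strain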
condition parameters: S. cerevisiae deletion strains, growth OD, locus YDR162C, strain NBP2, stronger effect = lower value
The whole screen tested about 5,500 compounds, of which about 2,000 (36%) were called active. About 18% were inconclusive and are not listed. The list shows a part of the results.
Please provide measured normalized growth for the entries that follow.
Give bare numbers.

- C[N+](C)(C)CCOP(=O)([O-])OP(=O)(O)OC[C@H]1OC(n2ccc(N)nc2=O)[C@H](O)[C@@H]1O (some centres not stated): 0.981
- COC(=O)COc1cc(Cl)c(Cl)cc1Cl: 0.965
- COC1C(O)C(O)C(O)[C@@H](O)C1O (some centres not stated): 1.01
- COC(=O)c1c(Cl)c(Cl)c(C(=O)OC)c(Cl)c1Cl: 0.997
- O=C(O)COc1cc(Cl)c(Cl)cc1Cl: 1

// batch mode: one normalized growth value per listed entry
1. COC(=O)COc1ccc(Cl)cc1Cl
2. CCCCCC(C)N (configuration not stated)

Result:
1: 0.996; 2: 1.01

----------
Please provide measured normalized growth for the entries that follow.
test description: chemical genetic growth profiling, strain panel (AID 1159580);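 also: tested at 20 µM; growth read once vehicle control cultures reached saturation at 30 °C; 1 = growth at the plate median or of vehicle wells; lower values mean less growth of the strain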
condition parameters: S. cerevisiae deletion strains, growth OD, locus YDR052C, strain DBF4, stronger effect = lower value
In all, about 5,500 compounds went through this assay and about 2,000 (36%) were called active. About 18% were inconclusive and are not listed. Some of the results follow.
One number for each entry.

Examples from the recorded data:
* C=CC(=O)N1CCc2cc([N+](=O)[O-])ccc21 | 0.827
* C/C(=N/NC(N)=S)c1ccc(Oc2c(Cl)cncc2Cl)cc1 | 0.989
* Cc1c(Cl)cccc1NC(=S)N1CCCN(c2nc3ccc(Cl)cc3s2)CC1 | 0.986

// batch mode: one normalized growth value per listed entry
1. N#Cc1c(Cl)c(Cl)c(Cl)c(Cl)c1C#N
2. CC(C)(C)C1=NN(c2nc3ccc(Cl)cc3s2)C(=O)C1

Result:
1. 0.77
2. 0.116

// batch mode: one normalized growth value per listed entry
1. Cc1c(Cl)cccc1NC(=S)N1CCCN(c2ccc(C(F)(F)F)cc2[N+](=O)[O-])CC1
2. CC1=CC(=O)C(CCOCCC2=CC(=O)C(C)=CC2=O)=CC1=O
3. CCC(C)c1ccccc1NC(=O)c1cc2cccc([N+](=O)[O-])c2[nH]1 (stereo unspecified)
4. O=C(C=C(O)c1ccc(Br)cc1)C(=O)Nc1ccccc1
5. O=C(Oc1cc(Cl)c(Cl)cc1Cl)C1c2ccccc2Oc2ccccc21
6. COc1ccc(NC(=O)O/N=C(/N)c2ccc(Oc3c(Cl)cncc3Cl)cc2)cc1

Result:
1: 0.991; 2: 0.991; 3: 0.965; 4: 0.849; 5: 0.96; 6: 0.986
